Test system: HL-60(TB) leukemia
Experiment: NCI-60 one-dose screen, 48 h (100 = growth as untreated, 0 = no growth, -100 = all killed)
Details: 10 µM unless noted
Compounds without any hit were thinned out: in the full panel of roughly 83,000, 20% have a hit.
# thresholds on growth define classes: low class = under 20%, middle class = from 20% up to 80%, high class = 80% and over

Asked: // bin(item) where item = Cc1cc2c(-c3nc4ccccc4n3C)c(O)c(O)cc2c(O)c1-c1c(C)cc2c(-c3nc4ccccc4n3C)c(O)c(O)cc2c1O
Given back: middle class

Asked: Repeat with COc1ccccc1N1CCN(C(CNS(=O)(=O)c2ccc(Cl)cc2)c2cccnc2)CC1 (stereo unspecified)
Given back: middle class

Asked: Param item: COc1ccc2c(c1)OC(N(C(C)=O)C(C)=O)=C(C#N)C2c1ccc(F)cc1 (stereo unspecified)
Given back: low class

Asked: Please do the same for c1ccc(Cn2cc3c(c2)-c2oncc2CC3)cc1 as well.
Given back: low class

Asked: Param item: O=C(O)COc1ccc(Cl)c(Cl)c1
Given back: high class

Asked: Thanks! And COc1cc2c(cc1OC)C(=O)C(Br)CC2 (stereo unspecified) ?
Given back: middle class

Asked: Repeat with COc1ccc(C(=O)NC(=O)Nc2ccc3c(c2)NC(=O)/C3=C\c2[nH]c(C)c(CCC(=O)O)c2C)c(F)c1
Given back: middle class

Asked: One more molecule: CNC(=O)O/N=C(/C)c1ccc(Cl)cc1
Given back: high class

Asked: Follow-up entry: S=C(NCCNC(=S)[S][Sn]([c]1ccccc1)([c]1ccccc1)[c]1ccccc1)[S][Sn]([c]1ccccc1)([c]1ccccc1)[c]1ccccc1
Given back: low class

Asked: And what about the molecule O=S(=O)(CCN1CCOCC1)Nc1cncc(-c2ccc3ncnc(Nc4ccc(F)c(Cl)c4)c3c2)c1 ?
Given back: high class

Asked: // repeat for CCOC(=O)c1c2c(n3cccc(Cl)c13)C(=O)c1ncccc1C2=O and report
Given back: middle class

Asked: Then what about the molecule COc1ccc2cc(Cn3cc[n+](Cc4ccc5ccccc5c4)c3)ccc2c1 ?
Given back: low class

Asked: Field entry: CCc1oc2ccccc2c1C(=O)c1cc(Br)c(O)c(Br)c1
Given back: middle class

Asked: Can you check Brc1ccc2[nH]cc(-c3nc(-c4c[nH]c5ccncc45)cs3)c2c1 next?
Given back: low class

Asked: Proceed to S=c1sc2c(Cl)nc(-c3cccnc3)nc2n1-c1ccccc1
Given back: low class

Asked: Queued: CC(=O)OCC1CCCO1 (stereo unspecified)
Given back: high class

Asked: Do the same for COc1ccc(OC)c(C2OC(c3ccc4ccccc4c3O)=NN2C(C)=O)c1 (stereo unspecified) please
Given back: low class

Asked: And O=C1c2ccccc2-c2c1c1ccncc1c(=O)n2CCCn1ccnc1 ?
Given back: middle class

Asked: Try this molecule too: COc1cc2c(c(OC)c1OC)C(=O)CC(c1cccc(C(=O)Nc3cccc(Br)c3)c1)O2 (stereo unspecified)
Given back: high class

Asked: Likewise for Clc1ccc(/C=C/c2cc(N3CCOCC3)c3cc(Cl)c(Cl)cc3n2)cc1 ?
Given back: low class

Asked: Input ClCC#CCSc1ncnc2c1ncn2CC#CCCl
Given back: low class

Asked: Follow-up entry: CCn1cc(/C=C2\Oc3cc(OCC#N)ccc3C2=O)c2cc(OC)ccc21
Given back: low class

Asked: Now give it for Clc1ccc2c(c1)N(CCCN1CCCC1)c1ccccc1S2 too.
Given back: low class

Asked: Try the molecule CC(C)(C)n1cc(-c2ccnc(NCCNS(=O)(=O)c3ccc(O)cc3)c2)c(-c2cccc(O)c2)n1
Given back: high class

Asked: Query Cc1ccc(/C(CS(=O)(=O)c2ccc(C)cc2)=N\O)cc1 next
Given back: high class

Asked: What do we get for CC(C)C1CCC(C)C(C2(C#N)C(N)=NC(N)=C2C#N)C1=O (stereo unspecified) ?
Given back: high class

Asked: What about this molecule? CCCCn1c2cc(OCc3cn(-c4ccc(Cl)cc4)nn3)ccc2c2ccnc(C)c21
Given back: low class

Asked: Another molecule: CCN(CC)CCCC(C)Nc1cnc(C(=O)Nc2ccc(Cl)c3cccnc23)cn1 (stereo unspecified)
Given back: low class

Asked: Do the same for CC(=O)N1N=C(c2ccc(Nc3nc(Nc4ccc(F)cc4)nc(Nc4ccc(Cl)cc4)n3)cc2)CC1c1ccc(N(C)C)cc1 (stereo unspecified) please
Given back: low class

Asked: Would you kindly repeat that for O=C(CCCN1CCC(O)(c2ccc(Br)cc2)CC1)c1ccc(F)cc1 ?
Given back: middle class

Asked: Thanks! And O=C(NC1CCN(Cc2ccccc2)CC1)c1cc(-c2ccncc2)nc2ccc(Cl)cc12 ?
Given back: low class

Asked: Then this molecule: O=c1c2ccccc2n(C[C@H]2CO2)c2ccccc12
Given back: low class

Asked: What do you get for COc1ccc(CNCCCN2C(=O)c3ccc4c5c(ccc(c35)C2=O)C(=O)N(CCCNCc2ccc(OC)c(OC)c2OC)C4=O)c(OC)c1OC ?
Given back: low class

Asked: What about this molecule? Nc1ccc2c(c1)c(N)nn2C(=O)Nc1ccc(Cc2ccccc2)cc1
Given back: low class

Asked: Note, next up: O=[N+]([O-])c1ccc(-c2cn(-c3ccccc3)c(-c3ccccc3)n2)cc1
Given back: high class

Asked: Let us now turn to COc1ccc(-c2nn(-c3cccc(NC(=O)c4cc(C(F)(F)F)cc(C(F)(F)F)c4)c3)cc2-c2ccncc2)cc1Cl
Given back: high class

Asked: Now try N#Cc1c(-c2ccc(Br)cc2)nc2c(N=Nc3ccc(S(N)(=O)=O)cc3)c(N)nn2c1N .
Given back: middle class

Asked: Then N#CC(C#N)N=Nc1cc(Cl)ccc1Cl ?
Given back: high class

Asked: Entry C[As](=O)(O)c1ccc(C(=O)O)cc1 please
Given back: high class

Asked: Next entry: CCN(CC)CCOC(=O)c1ccc(NC(=O)Nc2cccc(Cl)c2)cc1
Given back: high class
